Assay: qHTS assay for identifying genotoxic compounds that show differential cytotoxicity against isogenic chicken DT40 cell lines with known DNA damage response pathways - wild type cell line (AID 743012); also: nearly all actives have a fitted effect of over 60% in size
Conditions: DT40 wild type chicken cells viability, CellTiter-Glo, 40 h; series mostly up to 68.4 µM
Records with an inconclusive call do not appear. Activity calls are given as the source filed them. Calls follow the shape of the dose curve; as a rule, active = well fitted cell-killing curve with a large enough effect in the repeat runs; inconclusive = weak or mixed curves, or effect the other way; inactive = no such curve, though single readings can be large or run the other way.
Respond only with the outcome that fits, drawn from true = active, false = inactive

Before answering, review these 4 worked examples.
CC(C)NCC(O)COc1cccc2[nH]ccc12 (centres undefined) : false
CC(=O)NCc1c(I)c(NC(C)=O)c(I)c(C(=O)O)c1I : false
CC(C)CCCCOC(=O)c1ccccc1C(=O)OCCCCC(C)C : false
O=C(OCC(COC(=O)c1cccnc1)(COC(=O)c1cccnc1)COC(=O)c1cccnc1)c1cccnc1 : false

Now for another entry.
Challenge: Called result for CCOCCOCCOCC
Response given: false
